# test-name: soluble on expression in E. coli; label from the status in PepcDB or PDB records
endpoint-name: soluble on expression in E. coli

MLMKVAEFERLFRQAAGLDVDKNDLKRVSDFLRNKLYDLLAVAERNAKYNGRDLIFEPDLPIAKGLQETLQEFRRMDTALELKPVLDALAALPPLDLEVAEDVRNLLPELAGALVVAYARVLKELDPALKNPQTEHHERAERVFNLLL soluble
AAEVGDDFLGDFVVGERVWVNGVKPGVVQYLGETQFAPGQWAGVVLDDPVGKNDGAVGGVRYFECPALQGIFTRPSKLTRQP soluble
MGTKQYKDGTYYAEADDFDESGWKDTVTIEVKNGKIVSVDWNAINKDGGDDKDTLSRNGGYKMVEYGGAQAEWHEQAEKVEAYLVEKQDPTDIKYKDNDGHTDAISGATIKVKKFFDLAQKALKDAEKLEHHHHHH soluble

Taken from the DeepSol protein solubility set.
